assay: AUCt in ICR mouse at 25 mg/kg, po via bolus administration by LC-MS/MS analysis; format: ADME, organism-based; settings: in vivo
ATTRIBUTE MEASURED: AUC(0-t) (ng·h/mL)
Numeric only. Scale: ng·h/mL

In the examples that follow, each entry is paired with its recorded AUC(0-t).
C/C=C1\C[N@]2CC[C@H]1C[C@H]2[C@H](O)c1ccnc2ccc(OC3CCC3)cc12 ... 319
CCOc1ccc2nccc([C@@H](O)[C@@H]3C[C@@H]4CCN3C[C@@H]4CC)c2c1 [ETHYLHYDROCUPREINE] ... 1570
C/C=C1/CN2CC[C@H]1C[C@H]2[C@H](O)c1ccnc2ccc(O)cc12 ... 442

# context switch: different compound, same AUC(0-t)
Q) Please look at this compound and report its AUC(0-t): C/C=C1/C[N@]2CC[C@H]1C[C@H]2[C@H](O)c1ccnc2ccc(OC3CCC3)cc12
A) 368

* * *

test: Oral bioavailability in ICR mouse at 25 mg/kg via bolus administration by LC-MS/MS analysis; format: ADME, organism-based; conditions: in vivo
As shown below, each of these compounds has a reported bioavailability value.
API: value field is a number in %; no unit string.

Take a look at these entries with their results.
CCOc1ccc2nccc([C@@H](O)[C@@H]3C[C@@H]4CCN3C[C@@H]4CC)c2c1 [ETHYLHYDROCUPREINE] ... 109
C/C=C1/CN2CC[C@H]1C[C@H]2[C@H](O)c1ccnc2ccc(O)cc12 ... 23.3
C/C=C1\C[N@]2CC[C@H]1C[C@H]2[C@H](O)c1ccnc2ccc(OC3CCC3)cc12 ... 13.6

Q) Please look at this compound and report its bioavailability: C/C=C1/C[N@]2CC[C@H]1C[C@H]2[C@H](O)c1ccnc2ccc(OC3CCC3)cc12
A) 21

* * *

experiment: Volume of distribution at steady state in ICR mouse at 2.5 mg/kg, iv by LC-MS/MS analysis; format: ADME, organism-based; details: in vivo, read-out: Vdss
This listing pairs compounds with measured Vd.
// units = L/kg; emit number, no label

C/C=C1/CN2CC[C@H]1C[C@H]2[C@H](O)c1ccnc2ccc(O)cc12 ... 20
CCOc1ccc2nccc([C@@H](O)[C@@H]3C[C@@H]4CCN3C[C@@H]4CC)c2c1 [ETHYLHYDROCUPREINE] ... 12.7
C/C=C1\C[N@]2CC[C@H]1C[C@H]2[C@H](O)c1ccnc2ccc(OC3CCC3)cc12 ... 6.3

Q) Return reported Vd. Input compound: C/C=C1/C[N@]2CC[C@H]1C[C@H]2[C@H](O)c1ccnc2ccc(OC3CCC3)cc12
A) 8.8

* * *

test: Cytotoxicity against human HepG2 cells assessed as reduction in cell viability after 48 hrs by Alamar Blue assay; format: cell-based
ATTRIBUTE MEASURED: CC50 at 48 h (µM)
Value expressed in µM; do not type the unit.

// solved cases for CC50 at 48 h follow
CCCOc1ccc2nccc([C@@H](O)[C@@H]3C[C@@H]4CC[N@@]3C[C@@H]4CC)c2c1 ... 57
CC[C@H]1C[N@]2CC[C@H]1C[C@H]2[C@H](O)c1ccnc2ccc(OC3CCC3)cc12 ... 51
C=CCOc1ccc2nccc([C@@H](O)[C@@H]3C[C@@H]4CC[N@@]3C[C@@H]4CC)c2c1 ... 78
CC[C@H]1C[N@]2CC[C@H]1C[C@H]2[C@H](O)c1ccnc2ccc(OCc3ccccc3)cc12 ... 76
CC=C1C[N@]2CC[C@H]1C[C@H]2[C@H](O)c1ccnc2ccc(OCCC)cc12 ... 51
CC[C@H]1C[N@]2CC[C@H]1C[C@H]2[C@H](O)c1ccnc2ccc(OC(C)C)cc12 ... 86
CC=C1C[N@]2CC[C@H]1C[C@H]2[C@H](O)c1ccnc2ccc(OC(C)C)cc12 ... 54
CCCCOc1ccc2nccc([C@@H](O)[C@@H]3C[C@@H]4CC[N@@]3C[C@@H]4CC)c2c1 ... 41

Attention now turns to another entry.
Q) Provide CC50 at 48 h value for the following compound: CC=C1C[N@]2CC[C@H]1C[C@H]2[C@H](O)c1ccnc2ccc(OCCCC)cc12
A) 27

* * *

assay: Protein binding in plasma (unknown origin); assay type: ADME, cell-free; details: read-out: PPB
ATTRIBUTE MEASURED: fraction unbound

Q) Retrieve fraction unbound measured for O[C@@H](c1cc(C(F)(F)F)nc2c(C(F)(F)F)cccc12)[C@H]1CCCCN1 [(S,R)-MEFLOQUINE] and print it.
A) < 0.02

* * *

test: AUCt in ICR mouse at 2.5 mg/kg, iv by LC-MS/MS analysis; type: ADME, organism-based; conditions: in vivo
As shown below, each of these molecules has a reported AUC(0-t) value.
Respond numerically; units are ng·h/mL and should not be typed.

C/C=C1/C[N@]2CC[C@H]1C[C@H]2[C@H](O)c1ccnc2ccc(OC3CCC3)cc12 ... 175
C/C=C1/CN2CC[C@H]1C[C@H]2[C@H](O)c1ccnc2ccc(O)cc12 ... 190
C/C=C1\C[N@]2CC[C@H]1C[C@H]2[C@H](O)c1ccnc2ccc(OC3CCC3)cc12 ... 235

// next item, AUC(0-t) requested
Q) Identify measured AUC(0-t) corresponding to CCOc1ccc2nccc([C@@H](O)[C@@H]3C[C@@H]4CCN3C[C@@H]4CC)c2c1 [ETHYLHYDROCUPREINE]
A) 144

* * *

Readings of half-life for the listed molecules
test: Elimination half life in ICR mouse at 25 mg/kg, po via bolus administration by LC-MS/MS analysis; assay type: ADME, organism-based; conditions: in vivo, read-out: beta t1/2 (converted)
Give just the numeric value; min need not be written.

Q) Identify measured half-life associated with C/C=C1/CN2CC[C@H]1C[C@H]2[C@H](O)c1ccnc2ccc(O)cc12
A) 54.6

* * *

experiment: Tmax in ICR mouse at 25 mg/kg, po via bolus administration by LC-MS/MS analysis; type: ADME, organism-based; conditions: in vivo
ATTRIBUTE MEASURED: Tmax

// below: answered compounds
C/C=C1\C[N@]2CC[C@H]1C[C@H]2[C@H](O)c1ccnc2ccc(OC3CCC3)cc12 ... 15 min
CCOc1ccc2nccc([C@@H](O)[C@@H]3C[C@@H]4CCN3C[C@@H]4CC)c2c1 [ETHYLHYDROCUPREINE] ... 30 min
C/C=C1/C[N@]2CC[C@H]1C[C@H]2[C@H](O)c1ccnc2ccc(OC3CCC3)cc12 ... 4.98 min

Q) // fetch Tmax given entry C/C=C1/CN2CC[C@H]1C[C@H]2[C@H](O)c1ccnc2ccc(O)cc12
A) 4.98 min

* * *

test: Elimination half life in human
ATTRIBUTE MEASURED: half-life
Show the value, then the unit it is measured in.

Q) Determine from records and report half-life for O[C@@H](c1cc(C(F)(F)F)nc2c(C(F)(F)F)cccc12)[C@H]1CCCCN1 [(S,R)-MEFLOQUINE]
A) 20 days

* * *

assay: Cytotoxicity against human HepG2 cells assessed as reduction in cell viability after 48 hrs by Alamar Blue assay; assay type: cell-based
ATTRIBUTE MEASURED: CC50 at 48 h

Solved entries (count: 8):
CC=C1C[N@]2CC[C@H]1C[C@H]2[C@H](O)c1ccnc2ccc(OC3CCCC3)cc12 ... 48 µM
CC=C1C[N@]2CC[C@H]1C[C@@H]2[C@H](F)c1ccnc2ccc(OC)cc12 ... > 100 µM
C=CCON=C1C[N@]2CC[C@H]1C[C@H]2[C@H](O)c1ccnc2ccc(OC)cc12 ... 51 µM
CC[C@H]1CN2CC[C@H]1C[C@H]2[C@H](O)c1ccnc2ccc(O)cc12 ... > 100 µM
CC=C1C[N@]2CC[C@H]1C[C@@H]2[C@@H](O)c1ccnc2ccc(OC)cc12 ... > 100 µM
CC=C1C[N@]2CC[C@H]1C[C@H]2[C@H](O)c1ccnc2ccc(OCc3ccccc3)cc12 ... 47 µM
CCOC(=O)CCCON=C1C[N@]2CC[C@H]1C[C@H]2[C@H](O)c1ccnc2ccc(OC)cc12 ... > 100 µM
CC=C1C[N@]2CC[C@H]1C[C@H]2[C@H](O)c1ccnc2ccc(OC3CCC3)cc12 ... 56 µM

With those in mind, consider the next molecule.
Q) Note CC50 at 48 h for the molecule shown: CON=C1C[N@]2CC[C@H]1C[C@H]2[C@H](O)c1ccnc2ccc(OC)cc12
A) > 100 µM

* * *

assay: Cmax in ICR mouse at 25 mg/kg, po via bolus administration by LC-MS/MS analysis; format: ADME, organism-based; design: dose 25 mg/kg, route oral; conditions: in vivo
The following molecules are shown together with reported Cmax values.
State just the number; it will be interpreted in ng/mL.

Record excerpt, results attached:
C/C=C1/C[N@]2CC[C@H]1C[C@H]2[C@H](O)c1ccnc2ccc(OC3CCC3)cc12 ... 331
CCOc1ccc2nccc([C@@H](O)[C@@H]3C[C@@H]4CCN3C[C@@H]4CC)c2c1 [ETHYLHYDROCUPREINE] ... 639
C/C=C1/CN2CC[C@H]1C[C@H]2[C@H](O)c1ccnc2ccc(O)cc12 ... 619

Moving on to the next molecule.
Q) Name the recorded Cmax of the item C/C=C1\C[N@]2CC[C@H]1C[C@H]2[C@H](O)c1ccnc2ccc(OC3CCC3)cc12 in your answer.
A) 207
